Data origin: paper PMC4671089

MEASUREMENT TARGET: 2C5 TCR
EXPERIMENT SUMMARY: SPR equilibrium binding of 2C5 TCR to DR1-peptide
Design: species or system human
TEST SETTINGS: SPR equilibrium binding, Biacore 3000, CM5 chip, biotinylated pMHC-II immobilized on streptavidin, 2C5 TCR injected in eight serial dilutions, 45 μl/min, 25°C
MEASURED QUANTITY: Kd (µM)

INSERT INTO measurements (input_sequence, readout_value) VALUES
  ('PKYVKQNTLKLAR [DR1-Flu3, HLA-DR1 heterodimer complexed with altered Flu3 ([…]); monomer in SPR, fluorochrome-tagged multimer in staining]', 16),
  ('PKYVKQNTLKLAT [DR1-Flu1, HLA-DR1 heterodimer complexed with native Flu1 (HA306−318, …); monomer in SPR, fluorochrome-tagged multimer in staining]', 30);
